test: NCI Yeast Anticancer Drug Screen. Data for the sgs1 strain (AID 173); conditions: S. cerevisiae sgs1 mutant, at 33.0 µM
The panel holds about 79,000 compounds, 15% with a hit somewhere; the sample as a whole holds those more often. Active and inactive are the calls of the source. Cut-off read from the data, not from the text of the source: active = growth inhibition above about 70%; inactive = the rest.
Hello, when you answer, please use one of the following outcomes: True for active, False for inactive

Request: Which outcome did this test record for the molecule O=C1NC(=O)C2C3C=CC(C3)C12 (stereo not given) ?
Response: True

Request: Same again, this time with COc1cc(/C=C2\CCc3ccccc3C2=O)cc(OC)c1OC
Response: False

Request: Same again, this time with c1ccc2c(c1)c1ncccc1c1nccnc21
Response: False

Request: Same again, this time with NC(N)=N/N=C\c1c2ccccc2cc2ccccc12
Response: False

Request: Same again, this time with O=C(Nc1ccc(Cl)cc1)OCC#CCCl
Response: True

Request: Same again, this time with Nc1ccn(C2OC(CO)C3[O][Sn]([c]4ccccc4)([c]4ccccc4)[O]C32)c(=O)n1 (stereo not given)
Response: False

Request: Same again, this time with CC1CCN(CCC(=O)c2ccc(Cl)cc2)CC1
Response: False

Request: Same again, this time with Cc1ccc(S/N=C\c2ccccc2O)cc1
Response: False

Request: Same again, this time with O=C(Nc1ccccc1)C(=O)C(C(=O)c1ccccc1)C(c1ccccc1)c1ccccc1 (stereo not given)
Response: False

Request: Same again, this time with Oc1cccc2c(Cl)ccnc12
Response: True

Request: Same again, this time with COc1cc(C(=O)/C=C/c2ccccc2O)ccc1O
Response: True

Request: Same again, this time with CC(C)=CC(=O)O[C@@H]1CC(C)(C)CC2C3=CCC4[C@]56CC[C@](O)(OC5)C(C)(C)C6CC[C@@]4(C)C3(C)CC[C@]21C(=O)O (stereo not given in full)
Response: True

Request: Same again, this time with COc1cc2ccc(/C=C\[N+](=O)[O-])cc2cc1OC
Response: True

Request: Same again, this time with COC(=O)CSSCc1ccc([N+](=O)[O-])cc1
Response: True

Request: Same again, this time with CC(C)/C(Cl)=N\OC(=O)Nc1ccccc1F
Response: False

Request: Same again, this time with Clc1cccc(C(Nc2nncs2)Nc2nncs2)c1Cl
Response: False

Request: Same again, this time with Cc1ccc(NN(NC(=O)OC(C)C)C(=O)OC(C)C)cc1
Response: False

Request: Same again, this time with COc1cc2c(c(OC)c1OC)-c1c(cc3c(c1OC)OCO3)CC(C)C(C)(O)C2OC(=O)c1ccccc1 (stereo not given)
Response: False

Request: Same again, this time with CCN(CC)CC(O)c1ccc2ccc3ccccc3c2c1 (stereo not given)
Response: False

Request: Same again, this time with O=C1C2C=CC1C1C(=O)OC(=O)C21 (stereo not given)
Response: False

Request: Same again, this time with CC(=O)OCCOCNC(=S)N/N=C(\C)c1cnccn1
Response: False

Request: Same again, this time with CCc1ncnc2cc(OCC3CO3)c(OC)cc12 (stereo not given)
Response: True

Request: Same again, this time with Nc1nc(Cl)c(Cl)c(Cl)n1
Response: True

Request: Same again, this time with CCOc1ccc2c(c1)c(CC(=O)O)cn2C
Response: False

Request: Same again, this time with O=C1Nc2ccc(Cl)c(I)c2C1=O
Response: False
